- Tested system: BRD4(BD1) (Homo sapiens)
- Construct: His
- Experiment summary: BRD4 AlphaLisa binding assay
- Experimental parameters: BRD4(BD1) 30 nM, biotinylated H4-tetraacetyl peptide 200 nM, read-out: AS IC50
Observed property: IC50 (nM)

# annotated cases, reported IC50 shown
Cc1noc2c1-c1ccc(-c3cnn(CC(N)=O)c3)cc1N(c1ccc(C#N)cc1)CC2C (stereo not drawn) [Compound 134]; 30
Cc1noc2c1-c1ccc(-c3cnn(C)c3)cc1N(c1ccc(C#N)cc1)CC2CC(N)=O (stereo not drawn) [Compound 137]; 420
Cc1noc2c1-c1ccccc1N(c1ccc(Cl)cc1)CC2 [Compound 101]; 2680

[a] Cc1noc2c1-c1ccc(-c3ccc(N)nc3)cc1N(c1ccc(C#N)cc1)CC2 [Compound 116]
[b] Cc1noc2c1-c1ccc(-c3ccc(N)nc3)cc1N(c1ccc(C#N)cc1)CC2C (stereo not drawn) [Compound 123]
[c] Cc1noc2c1-c1ccc(-c3cnn(C)c3)cc1N(c1ccc(C#N)cc1)CC2CC#N (stereo not drawn) [Compound 140]
Req: Rank the items in ascending order with respect to IC50. Record the ranking as a list of labels in the requested order.
Resp: b, a, c
(b: 40 nM, a: 60 nM, c: 500 nM)

[I] CCC1CN(c2ccc(C#N)cc2)c2cc(-c3cnn(C)c3)ccc2-c2c(C)noc21 (stereo not drawn) [Compound 121]
[II] CCC1CN(c2ccc(C#N)cc2)c2cc(-c3ccc(=O)n(C)c3)ccc2-c2c(C)noc21 (stereo not drawn) [Compound 122]
Req: Among I and II , whose measured IC50 is the smaller figure? Bench note: the answer is the label of the chosen record.
Resp: II

[a] Cc1noc2c1-c1ccc(-c3cnn(C)c3)cc1N(c1ccc(S(C)(=O)=O)cc1)CC2 [Compound 120]
[b] Cc1noc2c1-c1ccc(-c3cnn(C)c3)cc1N(c1ccc(C#N)cc1)CC2C (stereo not drawn) [Compound 124]
[c] Cc1noc2c1-c1ccccc1N(c1ccc(C#N)cc1)C(C)C2 (stereo not drawn) [Compound 141]
[d] Cc1noc2c1-c1ccccc1NC(C)C2 (stereo not drawn) [Compound 144]
Req: Rank the items in ascending order with respect to IC50. Record the ranking as a list of labels in the requested order.
Resp: b, a, c, d

----------
- Tested system: BRD4(BD1) (Homo sapiens)
- Construct: His
- Experiment summary: BRD4 AlphaLisa binding assay
- Experimental parameters: BRD4(BD1) 30 nM, biotinylated H4-tetraacetyl peptide 200 nM, read-out: AS IC50
pIC50: −log10 of the molar value.
Observed property: pIC50

[A] Cc1noc2c1-c1ccc(-c3cncnc3)cc1N(c1ccc(C#N)cc1)CC2
[B] Cc1noc2c1-c1cc(C(N)=O)ccc1N(c1ccc(C#N)cc1)CC2
[C] Cc1noc2c1-c1ccccc1N(c1ccc(Cl)cc1)CC21CC1
Req: Arrange the items listed above so that pIC50 rises from first to last. Record the ranking as a list of labels in the requested order.
Resp: C, B, A
(C: 5.47, B: 5.85, A: 6.46)

----------
- Tested system: BRD4(BD1) (Homo sapiens, UniProt O60885)
- Construct: His
- Experiment summary: BRD4 AlphaLisa binding assay
- Experimental parameters: BRD4(BD1) 30 nM, biotinylated H4-tetraacetyl peptide 200 nM, read-out: AS IC50
Observed property: IC50 (nM)

Cc1noc2c1-c1ccc(-c3cnn(C)c3)c(C)c1N(c1ccc(C#N)cc1)CC2C (stereo not shown); 160
Cc1cccc2c1N(Cc1ccccc1)CCc1onc(C)c1-2; 20700

[1] Cc1noc2c1-c1cc(C#N)ccc1N(c1ccc(C#N)cc1)CC2
[2] Cc1noc2c1-c1ccc(-c3ccc(N)nc3)cc1N(c1ccc(C#N)cc1)CC2CC(=O)N(C)C (stereo not shown)
Req: Among 1 and 2 , whose measured IC50 is the smaller figure? Bench note: the answer is the label of the chosen record.
Resp: 1

----------
- Tested system: BRD4(BD1) (Homo sapiens, UniProt O60885)
- Construct: His
- Experiment summary: BRD4 AlphaLisa binding assay
- Experimental parameters: BRD4(BD1) 30 nM, biotinylated H4-tetraacetyl peptide 200 nM, read-out: AS IC50
pIC50: −log10 of the molar value.
Observed property: pIC50

[I] Cc1noc2c1-c1ccc(-c3ccc(=O)n(C)c3)cc1N(c1ccc(C#N)cc1)CC2
[II] Cc1noc2c1-c1cc(-c3cnn(C)c3)ccc1N(c1ccc(C#N)cc1)CC2
[III] Cc1noc2c1-c1ccccc1N(c1ccc(C#N)cc1)CC2
Req: Arrange the items listed above so that pIC50 rises from first to last. Record the ranking as a list of labels in the requested order.
Resp: II, III, I
(II: 5.42, III: 6.37, I: 7.40)

----------
- Tested system: BRD4(BD1) (Homo sapiens, UniProt O60885)
- Construct: His
- Experiment summary: BRD4 AlphaLisa binding assay
- Experimental parameters: BRD4(BD1) 30 nM, biotinylated H4-tetraacetyl peptide 200 nM, read-out: AS IC50
Observed property: IC50 (µM)

[P] Cc1noc2c1-c1ccc(-c3ccc(C(=O)O)cc3)cc1N(c1ccc(C#N)cc1)CC2
[Q] CCCN1CCc2onc(C)c2-c2ccccc21
[R] Cc1onc2c1-c1ccccc1N(c1ccc(Cl)cc1)CC2
Req: Hey, quick one: sort these by IC50, largest value first please. Record the ranking as a list of labels in the requested order.
Resp: Q, R, P

[P] Cc1noc2c1-c1ccc(-c3cnn(C)c3)cc1N(c1ccc(C#N)cc1)CC2CCO (stereo not drawn)
[Q] Cc1noc2c1-c1ccccc1N(C(=O)c1ccccc1)CC2
[R] Cc1noc2c1-c1ccccc1N(c1ccc(C#N)cc1)CC21CC1
Req: Reorder: IC50, max to min. Record the ranking as a list of labels in the requested order.
Resp: Q, R, P

[I] Cc1noc(C)c1-c1ccc2c(c1)-c1c(C)noc1CCN2c1ccc(C#N)cc1
[II] Cc1noc(C)c1-c1ccc2c(c1)N(c1ccc(C#N)cc1)CCc1onc(C)c1-2
Req: Return label of the item with the larger IC50. Candidates: I , II . Bench note: the answer is the label of the chosen record.
Resp: I
(I: 8.9 µM, II: 0.3 µM)

[a] Cc1noc2c1-c1ccc(-c3cnn(C)c3)cc1N(c1ccc(C#N)cc1)C(=O)C2
[b] Cc1noc2c1-c1ccccc1N(C)CC2
Req: Among a and b , whose measured IC50 is the smaller figure? Bench note: the answer is the label of the chosen record.
Resp: a

----------
- Tested system: BRD4(BD1) (Homo sapiens, UniProt O60885)
- Construct: His
- Experiment summary: BRD4 AlphaLisa binding assay
- Experimental parameters: BRD4(BD1) 30 nM, biotinylated H4-tetraacetyl peptide 200 nM, read-out: AS IC50
pIC50: −log10 of the molar value.
Observed property: pIC50

# annotated cases, reported pIC50 shown
Cc1noc2c1-c1ccc(-c3cnn(C)c3)cc1N(c1ccc(C(N)=O)cc1)CC2; 6.82
Cc1noc2c1-c1ccc(-c3ccc(=O)n(C)c3)cc1N(c1ccc(C#N)cc1)CC2C (centres unmarked); 7.40
Cc1onc2c1-c1ccccc1NCC2; 4.40
Cc1noc2c1-c1ccccc1N(Cc1ccccc1)CC2; 4.89
Cc1noc2c1-c1ccccc1N(C(C)C)CC2; 5.09

[A] Cc1noc2c1-c1ccccc1NCC2
[B] Cc1noc2c1-c1cc(-c3cncnc3)ccc1N(c1ccc(C#N)cc1)CC2
[C] Cc1ccc2c(c1)-c1c(C)noc1CCN2c1ccc(C#N)cc1
[D] Cc1noc2c1-c1ccc(-c3cnn(C)c3)cc1N(c1ccc(C#N)cc1)CC2
Req: Rank the items in ascending order with respect to pIC50. Record the ranking as a list of labels in the requested order.
Resp: B, A, C, D
